Assay: yeast display, Sf9 membrane polyspecificity reagent, FACS + sequencing; frameworks hold sequencing errors
measured.parameter: polyreactivity (PSR sort gate)

chain=QDQLVESGAGLVQAGGSLRLSCAASGRTFAYNAMGWYRQAPGKERELVASITSGGSTNYADSVKGRFTISRDNAKNTVYLQMNCLKPEDTAVYYCNKDGKYHRVLYDYWGQGTQVTVSS reported_result="low polyreactivity"
chain=QVQLVESGGGLVQAGGSLRLICAASGFTIWWYAMGWYRQAPGKERELVATITSGGRTYYADSVKGRFTISRDNAKNTVYLQMNSLKPEDTAVYYCAAESEVGYVYDPMYYLGQGTQVTVSS reported_result="high polyreactivity"
chain=QVQLVESGGGLVQAGGSLRLSCAASGFTFWTYDMGWYRQAPGKERELVAAISTSGGSTYYADSVKGRFTISRDNAKNTVYLQMNSLKPEDTAVYYCAAYAIGEHFRARYGYWGQGTQVTVSS reported_result="high polyreactivity"
chain=QVQLVESGGGLVQAGGSLRLSCAASGITFLDNAMGWYRQAPGKERELVAAITSDGNTYYADSVKGRFTISRDNAKNTVYLQMNSLKPEDTAVYYCAARGFLKYVTEFDYWGQGTQVTVSS reported_result="low polyreactivity"
chain=QVQLVESGGGLVQAGGSLRLSCAASGFTFAKYAMGWSRQAPGKERELVAAIRSRGDTTYYADSVKGRFTISRDNAKNTVYFQMNSLKPEDTAVYYCAARSYFLVDCSRYDYWGQGSQVTVSS reported_result="high polyreactivity"

###

Assay: yeast display, Sf9 membrane polyspecificity reagent, FACS + sequencing; frameworks hold sequencing errors
measured.parameter: polyreactivity (PSR sort gate)

chain=QDQLVESGGGLVQAGGSLRLSCAASGLTFDRYTMGWYRQAPGKERELVAAITRGGGNTYYADSVKGRFTISRDNAKNTVYLQMNSLKPEDTAVYYCAANRRDGYDYWGQGTQVTVSS reported_result="low polyreactivity"
chain=QVQLVESGGGLVQAGGSLRLSCAASGNIFHFYAMGWYRQAPGKERELVATISWRGDGTYYADSVKGRFTISRDNAKYTVYLQMNSLKPEDTAVYYCAARGVWPEYDYWGQGTQVTVSS reported_result="low polyreactivity"
chain=QVQLVESGGGLVQAGGSLRLSCAASGSTFIDYAMGWYRQAPGKEREFVAGISSGDSTDYADSVKGRFTISRDNAKNTVYLQMNSLKPEDTAVYYCNADWNPTERWFYWYTPLGYDYWGQGTQVTVSS reported_result="low polyreactivity"
chain=QVQLVESGGGLVQAGGSLRLSCAASGFTFVRYAMGWYRQAPGKERELVAAISSSGGSTYYADSVKGRFTISRDNAKNTVYLQMNSLKPEDTAVYYCAARPYARYSRNIDGYEYWGQGTQVTVSS reported_result="high polyreactivity"
chain=QVQLVESGGGLVQAGGSLRLSCAASGFIFGYNVKGWYRQAPGKERELVAAISSRGSSTYYADSVKGRFSISRDNAKNTVYIQMNSLKPEDTAVYYCAAYSSYNSWVSRRYGHDYWGQGTQVTVSS reported_result="high polyreactivity"

###

Experiment: yeast display, Sf9 membrane polyspecificity reagent, FACS + sequencing; frameworks hold sequencing errors
measured.parameter: polyreactivity (PSR sort gate)

chain=QVQLVESGGGLVQAGGSLRLSCAASGSTLNVNAMGWYRQAPGKERELVAAITSGGSTYYADSVKGRFTISRDNEKNTVYLQIHSLKPEDTAVYYCNKRRSWRPTYPIGGSGFYYWGQGTQVTVSS measured_parameter="polyreactivity (PSR sort gate)" reported_result="low polyreactivity"
chain=QVQLVESGGGLVQAGGSLRLSCAASVFTFTRYVMGWYRQAPVKERELVAAISGSGGSTNYADSVKGRFTISRDNAKNTVYLQMNSLKPEDTVVYYCAARFVGSRYRFDYWGQRTQVTVSS measured_parameter="polyreactivity (PSR sort gate)" reported_result="high polyreactivity"
chain=QVQLVESGGGLVQAGGSLRLSCAASGFIFISNAMGWYRQAPGKERELVARISDTDRTHYADSVKGRFTISRDNAKNTVYLQMNSLKPEDTAVYYCATDQSLLDKVYYDVQYDYWGQGTQVTVSS measured_parameter="polyreactivity (PSR sort gate)" reported_result="low polyreactivity"
chain=QVQLVESGGGLVQAGGSLRLSCAASGSIFNTYVMGWYRQAPGKERELVAAITYSAGGDTYYADSVKGRFTISRDNAKNTVYLQMNSLKPEDTAVYYCAAEYTYLDAYGSYDYWGQGTQVTVSS measured_parameter="polyreactivity (PSR sort gate)" reported_result="low polyreactivity"
chain=QVQLQESGGGLVQADGSLRLSCAASGSIFGYYYMGWYRQAPGKDRELVATINICGITNYADSVKGRFTISRDNAKNTVYLQMNSLKPDDNAVYYCAADEYAQRDLGYWGQGTQVTVSS measured_parameter="polyreactivity (PSR sort gate)" reported_result="low polyreactivity"
chain=QVQLEESGGGLVQAGGRLRLSCAASGRIYTKYAMGWYRQAPGKERELVAAISGSGGNTYYADSVKGRFTISRDNAKNTVYLQMNSLKPEDTAVYYCNRAKNAYLMDYWGQGTQVTVSS measured_parameter="polyreactivity (PSR sort gate)" reported_result="high polyreactivity"
chain=QVQLVESGGGLVQAGGSLRLSCAASGRIIARYTMGWYRQAPGKERELVAAITRGSSTYYADSVKGRFTISRDNALNTVFLHMNSQKPEDTAVNYCAKVYVVKSRYVYWGKGTQVTVSS measured_parameter="polyreactivity (PSR sort gate)" reported_result="low polyreactivity"
chain=QVQLVESGGGLVQAGGSLRLSCAASGYTFVIYAMGWYRQAPGKERELVAAITTIGGRTYYADSVKGRFTISRDNAKNTVYLQMNSLKPEDTAVYYCAADIRSYRLYDGGYWGQGTQVTVSS measured_parameter="polyreactivity (PSR sort gate)" reported_result="low polyreactivity"
chain=QVQLVESGGGLVQAGGSLRLSCAASGRTFSYAMGWYRQAPGKERELVAGISWSGGRTYYADSVKGRFTISRDNAKNTVYLQMNSLKPEDTAVYYCAAGGRARTYYYWGQGTQVTVSS measured_parameter="polyreactivity (PSR sort gate)" reported_result="high polyreactivity"
chain=QVQLVESGGGLVQAGGSLRLSCAASGRIIPRNAMGWYRQEPGKERELVAGISRGGSTYYADSVKGRFTISRDNAKNSVYLQMNSLKPEDTAVYYCAAAYQKSPITPNMDYWGQGTQVTVSS measured_parameter="polyreactivity (PSR sort gate)" reported_result="low polyreactivity"
chain=QVQLVESGGGLVQAGGSLRLSCAASGNTLYQYAMGWYRQAPGKERELVASITWSGSSTYYADSVKGRFTISRDNAKNTVYVQMNSLKPEDPAVYYCAAYGYHRDYLYDYWGQGTQVTVSS measured_parameter="polyreactivity (PSR sort gate)" reported_result="low polyreactivity"
chain=QVQLVESGGGLVQAGGSLRLSCAASGSTFYLNAMGWYRQAPGKERELVAAIDYRGGSTYYADSVKGRFTISRDNAKNTVYLQMNSLKPEDTAVYYCNADYVYVHYQPGYYWGQGTQVTVSS measured_parameter="polyreactivity (PSR sort gate)" reported_result="low polyreactivity"
chain=QVQLVESGGGLVQAGGSLRLSCAASGSIFCSYAMGWYRQAPGKERELVAAITWSGGNTYADSVKGRFTISRDNAKNTDYLQMNSLKPEDTAVYYCAADPAHGTKWYVYPSHDDYWGQGTQGTVSS measured_parameter="polyreactivity (PSR sort gate)" reported_result="low polyreactivity"
chain=QVQLVESGGGLVQAGGSLRLSCAASGRIFVGYTMGWYRQAPGKERELVAAISSRGGRTNYADSVKGRFTISRDNAKNTVYLQMNSLKPEDTAVYYCATRLYPHQYYYWGQGSQVTVSS measured_parameter="polyreactivity (PSR sort gate)" reported_result="high polyreactivity"
chain=QVQLVESGGGLVQAGGSLRLSCAASGFTSRKNAMGWYRQAPGKERELVAAITQSSGRTYYADSVKGRFTISRDNAKNTVYLQMNSLKPEDTAVYYCAARRGGEDDYWGQGTQGTVSS measured_parameter="polyreactivity (PSR sort gate)" reported_result="low polyreactivity"
chain=QVQLEESGGGLVHAGGSLRLTCDAYGYIFALNPIVWNRQAPGNESEVVAAINDSGDSTYYADSLKGRFTISRDNSKNTVYLQMNSLNPEDSAVYYCAADTRYRYGAFPYYEYDNWGQGTQVTVSS measured_parameter="polyreactivity (PSR sort gate)" reported_result="low polyreactivity"
chain=QVQLVESGGGLVQAGGSLRLSCAASGRIFRYYAMGWYRQAPGKERELVAAITRGGSTNYADSVKGRFTISRDNAKNTVYLQMNSLIPEDTAVYYCNKYPYFVYGDYGYWGQGTQVTVSS measured_parameter="polyreactivity (PSR sort gate)" reported_result="high polyreactivity"
chain=QVHLVDSGGCLVQAGGSLRLSCAASGRTFSAYAMGWYRQAPGKEREVVAAISRSGGSTYYADSVKGRFTISRDNAKNTVYLPMNSLTPEDTAVYDCAVRWPSARIPVKLEDWGQGTQVTVSS measured_parameter="polyreactivity (PSR sort gate)" reported_result="high polyreactivity"
chain=QVQLVESGGGLVQAGGSLRLSCAASGRIFGVYAMGWSRQAPGKERELVAAITARGGSTYYADSVKGRFTISRDNAKNTVYLQMNSLKPEDTAVYYCNAARSTSRPYDYWGQGTQVTVSS measured_parameter="polyreactivity (PSR sort gate)" reported_result="high polyreactivity"
chain=QVQLVESGGGLVQARGSLRLSCAACGSTFYWYPLGWSRQAPGTERELVATLTSVGRTNYADSVKGRFTISRDNAKNSVYLQMNRLNPEDTAVYYCAASKARWPRGGSRGGMGYWGQGTQVTVSS measured_parameter="polyreactivity (PSR sort gate)" reported_result="high polyreactivity"
chain=QVQLVESGGGLVQAGGSLRLSCGASGSTFVAYDMGWYRQGPGKERELVAAISWSDATTYYADSVKGRFTISRDNAKNTVYLLMNSLNPEDTAVYYCAATRDTNNMDYWGQGTQVTVSS measured_parameter="polyreactivity (PSR sort gate)" reported_result="low polyreactivity"
